- EXPERIMENT_NOTES: Terminal half life in Swiss mouse brain at 30 mg/kg, po
- Type: ADME, organism-based
- Set-up: dose 30 mg/kg, route oral
- ASSAY_SETUP: read-out: beta t1/2 (converted)
MEASURED_PARAMETER: half-life (h)

| SMILES_INPUT | MEASURED_PARAMETER | NUMBER |
| --- | --- | --- |
| Cc1cc(C(=O)O)n[nH]1 | half-life | 1 |

* * *

Measured Vd, listed per entry for reference.
- EXPERIMENT_NOTES: Volume of distribution in Wistar rat plasma at 1 mg/kg, iv
- Type: ADME, organism-based
- Set-up: dose 1 mg/kg, route intravenous

| SMILES_INPUT | Vd |
| --- | --- |
| O=C(O)c1cc2sccc2[nH]1 | 2.1 L/kg |
| O=c1[nH]c2cccc(Cl)c2cc1O | 0.3 L/kg |
| O=C(O)c1cc2occc2[nH]1 | 0.4 L/kg |
| O=c1[nH]c2ccc(F)c(Cl)c2cc1O | 0.3 L/kg |
